Quick reference: inhibition at 100 µM of the listed items.
assay.target: UniProt:P0DTD1
assay.notes: biochemical
experimental.conditions: read-out: %inhibition
Structures can show the parent of a compound that is named as a salt.
Numeric answer only, unit % assumed.

[
  {
    "molecule": "Nc1cccc2c1C(=O)N(C1CCC(=O)NC1=O)C2=O (centres unmarked) [Pomalidomide]",
    "inhibition at 100 µM / %": 0
  },
  {
    "molecule": "NC[C@@H]1O[C@H](O[C@H]2[C@@H](O)[C@H](O[C@@H]3[C@@H](O)[C@H](N)C[C@H](N)[C@H]3O[C@H]3O[C@H](CN)[C@@H](O)[C@H](O)[C@H]3N)O[C@@H]2CO)[C@H](N)[C@@H](O)[C@@H]1O [Neomycin sulfate]",
    "inhibition at 100 µM / %": 0
  },
  {
    "molecule": "CN1C(=O)OC(C)(C)C1=O [Trimethadione]",
    "inhibition at 100 µM / %": 0
  },
  {
    "molecule": "CCOC(=O)[C@H](CCc1ccccc1)N[C@H]1CS[C@H](c2cccs2)CN(CC(=O)O)C1=O [Temocapril HCl]",
    "inhibition at 100 µM / %": 0
  }
]

Prompt: Write down the reported inhibition at 100 µM of CCCN1CCCC[C@H]1C(=O)Nc1c(C)cccc1C [Ropivacaine] , test system: UniProt:P0DTD1.
Completion: 0
